Listing of entries alongside the reported Fold change.
# TARGET: Varroa mite proctolin receptor (VdProctR) (Varroa destructor)
# Sequence (A0A7T1TE40 entry or part of it): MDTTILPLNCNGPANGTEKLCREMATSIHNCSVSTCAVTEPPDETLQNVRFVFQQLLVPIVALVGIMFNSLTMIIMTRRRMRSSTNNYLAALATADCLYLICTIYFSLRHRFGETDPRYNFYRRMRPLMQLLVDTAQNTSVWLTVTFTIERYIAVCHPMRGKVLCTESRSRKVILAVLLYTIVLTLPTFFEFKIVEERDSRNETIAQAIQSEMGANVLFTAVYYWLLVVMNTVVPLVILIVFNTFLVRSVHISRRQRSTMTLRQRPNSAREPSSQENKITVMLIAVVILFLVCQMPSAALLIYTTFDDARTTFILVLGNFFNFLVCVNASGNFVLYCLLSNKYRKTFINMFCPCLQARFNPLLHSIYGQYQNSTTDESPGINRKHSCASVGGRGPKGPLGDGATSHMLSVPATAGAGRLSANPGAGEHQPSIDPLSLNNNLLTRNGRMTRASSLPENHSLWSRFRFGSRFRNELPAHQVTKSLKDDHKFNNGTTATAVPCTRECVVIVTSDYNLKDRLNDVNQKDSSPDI
# EXPERIMENT_DESCRIPTION: Receptor activity assay (aequorin luminescence), CHO cells transiently expressing the receptor, first set of ligands
# Assay type: cell-based
# CONDITION_CONTEXT: EC50 relative to proctolin, first set (transient expression)
Where a SMILES comes first, the peptide text is derived from it. [ ]: non-standard residue; d: D form. Hyp = O=C(O)[C@@H]1C[C@@H](O)CN1; β3hF = N[C@H](CC(=O)O)Cc1ccccc1

# MOLECULE, Fold change
records = [
    ("CC(C)C[C@H](NC(=O)[C@H](Cc1ccc(O)cc1)NC(=O)[C@@H](N)CCCNC(=N)N)C(=O)N1CCC[C@@H]1C(=O)N[C@H](C(=O)O)[C@@H](C)O [Analog 2327, RYL[dP]T] (H-RYL[dP]T-OH; N-terminus and C-terminus assumed)", 1881.1),
    ("CC(C)C[C@H](NC(=O)C[C@H](Cc1ccccc1)NC(=O)[C@@H](N)CCCNC(=N)N)C(=O)N1CCC[C@H]1C(=O)N[C@H](C(=O)O)[C@@H](C)O [Analog 2333, R[β3F]LPT] (H-R[β3hF]LPT-OH)", 572.0),
    ("CC(C)C[C@H](NC(=O)[C@@H](Cc1ccc(O)cc1)NC(=O)[C@@H](N)CCCNC(=N)N)C(=O)N1C[C@H](O)C[C@H]1C(=O)N[C@H](C(=O)O)[C@@H](C)O [Analog 2337, R[dY]L[HyP]T] (H-R[dY]L[Hyp]T-OH; N-terminus and C-terminus assumed)", 143.5),
    ("CC(C)C[C@H](NC(=O)C[C@H](Cc1ccccc1)NC(=O)[C@@H](N)CCCNC(=N)N)C(=O)N1C[C@H](O)C[C@H]1C(=O)N[C@H](C(=O)O)[C@@H](C)O [Analog 2338, R[β3F]L[HyP]T] (H-R[β3hF]L[Hyp]T-OH)", 136.1),
]
